# System: SNB-75
# Run description: NCI tumour cell line growth inhibition, 48 h
Calls of active or inactive are those of the source. Rule as the data show it: active = GI50 up to about 1.1 µM and inactive = higher.
Assay readout: GI50

// worked examples, GI50 included
Which GI50 reading was recorded for the compound "C(=N\c1ccc2c(c1)Cc1ccccc1-2)/c1ccccn1" ?
67.6 µM (inactive)

Consider the compound shown here: CCNC(=O)Cc1nc2c(O)ncnc2n1C1OC(CO)C(O)C1O (configuration not stated) What is its recorded GI50?
> 100 µM (inactive)

Fill in: GI50 of "COc1ccc(-c2[nH]c3ccccc3c2CCNS(=O)(=O)c2ccc(C)cc2)cc1" is ___
> 10 µM (inactive)

Reported GI50 for "CCOC(=O)C1=C(Nc2ccccc2)OC/C1=N\NC(=O)Cc1ccccc1" : what is it?
31.4 µM (inactive)

Give the measured GI50 of "O=C(N/N=C\c1cccc2ccccc12)Nc1cccc2ccccc12" .
6.61 µM (inactive)

Entry under review: "CC(=O)c1sc2c(c1OC(=O)c1ccc(Cl)cc1Cl)c(=O)n(-c1ccccc1)c(=S)n2-c1ccccc1" . Reported GI50?
0.472 µM (active)

For O=C1c2ccccc2C2=Cc3ccccc3C(O)N12 (configuration not stated) , what is its reported GI50?
92.5 µM (inactive)

Fill blank: measured GI50 of the compound COc1ccc(C2C(C#N)=C(S)N(C3OC(CO)C(O)C(O)C3O)C(C)=C2C(C)=O)cc1 (configuration not stated) is ____.
42.7 µM (inactive)

As a next step, examine the compound that follows.
# GI50 lookup, item "CCN(CC)CCCCC1CCN(CC(=O)N2c3ccccc3NC(=O)c3ccccc32)CC1"
> 100 µM (inactive)
